# assayed system: Tyrosine-protein kinase Lck (Homo sapiens, UniProt P06239)
# Sequence (P06239 whole entry): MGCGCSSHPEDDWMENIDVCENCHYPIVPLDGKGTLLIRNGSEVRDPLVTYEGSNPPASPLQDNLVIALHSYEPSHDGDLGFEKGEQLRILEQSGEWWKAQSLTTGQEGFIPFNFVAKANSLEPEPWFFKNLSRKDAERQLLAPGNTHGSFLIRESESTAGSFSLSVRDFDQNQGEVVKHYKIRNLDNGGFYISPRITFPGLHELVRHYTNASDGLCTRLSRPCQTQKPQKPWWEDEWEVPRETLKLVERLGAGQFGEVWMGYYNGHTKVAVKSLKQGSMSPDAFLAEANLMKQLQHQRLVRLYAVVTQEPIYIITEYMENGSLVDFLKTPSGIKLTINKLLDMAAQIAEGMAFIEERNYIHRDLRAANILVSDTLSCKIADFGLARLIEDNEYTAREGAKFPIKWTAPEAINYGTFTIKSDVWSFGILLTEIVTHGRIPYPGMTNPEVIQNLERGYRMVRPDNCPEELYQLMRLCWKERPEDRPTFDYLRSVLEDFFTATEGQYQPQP
# experimental protocol: Inhibition of p56 Lck tyrosine kinase in Jurkat cells where p56lck autophosphorylation is inhibited.
# Assay type: cell-based
property: IC50 (µM)

>>> number("COc1cc2ncnc(Nc3ccc4c(c3)CCC4)c2cc1OC")
50
>>> number("COc1cc(Nc2[nH]cnc3nncc2-3)cc(OC)c1OC")
10
>>> number("COc1ccc2ncnc(Nc3cc(OC)c(OC)c(OC)c3)c2c1")
10
>>> number("COc1ccc(Nc2ncnc3cc(OC)c(OC)cc23)cc1")
10

----------
Below, each of the molecules is paired with its reported pIC50 value.
# assayed system: Epidermal growth factor receptor (Homo sapiens, UniProt P00533)
# Sequence (P00533 whole entry): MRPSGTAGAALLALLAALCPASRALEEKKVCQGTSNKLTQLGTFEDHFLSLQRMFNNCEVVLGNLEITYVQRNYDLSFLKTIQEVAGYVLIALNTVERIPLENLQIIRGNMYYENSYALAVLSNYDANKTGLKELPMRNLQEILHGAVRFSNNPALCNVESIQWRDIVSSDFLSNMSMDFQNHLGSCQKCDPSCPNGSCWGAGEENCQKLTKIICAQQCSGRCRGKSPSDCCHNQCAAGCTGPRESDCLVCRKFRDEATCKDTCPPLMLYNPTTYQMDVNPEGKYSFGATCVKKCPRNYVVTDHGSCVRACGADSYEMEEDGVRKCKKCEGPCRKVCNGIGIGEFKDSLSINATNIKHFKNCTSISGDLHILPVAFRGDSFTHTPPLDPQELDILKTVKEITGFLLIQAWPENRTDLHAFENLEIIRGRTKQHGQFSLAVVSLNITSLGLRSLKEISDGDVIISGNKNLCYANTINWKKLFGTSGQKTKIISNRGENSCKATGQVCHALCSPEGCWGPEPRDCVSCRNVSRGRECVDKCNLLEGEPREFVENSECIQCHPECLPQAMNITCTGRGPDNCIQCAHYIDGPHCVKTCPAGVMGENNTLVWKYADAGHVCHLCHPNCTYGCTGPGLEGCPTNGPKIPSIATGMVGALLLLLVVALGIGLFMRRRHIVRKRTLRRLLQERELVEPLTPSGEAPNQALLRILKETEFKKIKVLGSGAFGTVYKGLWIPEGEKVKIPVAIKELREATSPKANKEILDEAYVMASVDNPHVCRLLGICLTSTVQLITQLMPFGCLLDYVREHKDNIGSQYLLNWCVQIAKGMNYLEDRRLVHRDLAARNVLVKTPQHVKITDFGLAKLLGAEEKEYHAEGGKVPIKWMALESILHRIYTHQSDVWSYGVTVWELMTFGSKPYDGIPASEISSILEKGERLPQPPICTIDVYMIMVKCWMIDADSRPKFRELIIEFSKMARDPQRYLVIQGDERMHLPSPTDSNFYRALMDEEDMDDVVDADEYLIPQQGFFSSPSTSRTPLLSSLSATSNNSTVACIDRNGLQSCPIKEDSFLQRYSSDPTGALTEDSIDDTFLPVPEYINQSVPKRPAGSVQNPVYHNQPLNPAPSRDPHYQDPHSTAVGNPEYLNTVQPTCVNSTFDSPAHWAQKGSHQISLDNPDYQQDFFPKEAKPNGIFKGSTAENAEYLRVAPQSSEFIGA
# experimental protocol: Inhibition of Epidermal growth factor receptor autophosphorylation.
pIC50: −log10 of the molar value.
property: pIC50

>>> result("COc1cc(Nc2ncnc3c(C)cc(C)cc23)cc(OC)c1OC")
"< 4.70"
>>> result("COc1cc2ncnc(Nc3ccc(N4CCOCC4)cc3)c2cc1OC")
"< 6.00"
>>> result("COc1ccc(Sc2ncnc3cc(OC)c(OC)cc23)cc1OC")
"< 4.30"
>>> result("COc1cc(Nc2ncnc3c(OC)c(OC)c(OC)cc23)cc(OC)c1OC")
"< 4.70"

----------
# Lookup of reported pIC50 keyed by entry
# assayed system: Tyrosine-protein kinase Lck (Homo sapiens, UniProt P06239)
# experimental protocol: Inhibition of p56 Lck tyrosine kinase in Jurkat cells where p56lck autophosphorylation is inhibited.
# Format: cell-based
pIC50: −log10 of the molar value.
property: pIC50

>>> result("COc1cc(Nc2ncnc3c(C)cc(C)cc23)cc(OC)c1OC")
"< 4.00"
>>> result("COc1cc(Nc2ncnc3c(OC)c(OC)c(OC)cc23)cc(OC)c1OC")
"< 4.00"
>>> result("COc1cc(Nc2ncnc3ccc(Cl)cc23)cc(OC)c1OC")
"< 4.30"
>>> result("COc1ccc(Sc2ncnc3cc(OC)c(OC)cc23)cc1OC")
"< 4.30"

Reference source: ChEMBL document CHEMBL1129839
